- TEST DETAILS: Tmax in fasting Wistar rat at 30 mg/kg, po
- Format: ADME, organism-based
- Parameters: dose 30 mg/kg, route oral
- ASSAY SETUP: in vivo
ASSAY ENDPOINT: Tmax (min)
Field format: number, assumed min, no unit text.

Please report the recorded Tmax for CCO[C@@H](Cc1ccc(OCCc2nc(-c3ccc(C)s3)oc2C)cc1)C(=O)O . 40

###

Task for the reader: assign each of the following molecules its reported EC50.
- ASSAY TARGET: Peroxisome proliferator-activated receptor gamma (Homo sapiens, UniProt P37231)
- Sequence (P37231 whole entry): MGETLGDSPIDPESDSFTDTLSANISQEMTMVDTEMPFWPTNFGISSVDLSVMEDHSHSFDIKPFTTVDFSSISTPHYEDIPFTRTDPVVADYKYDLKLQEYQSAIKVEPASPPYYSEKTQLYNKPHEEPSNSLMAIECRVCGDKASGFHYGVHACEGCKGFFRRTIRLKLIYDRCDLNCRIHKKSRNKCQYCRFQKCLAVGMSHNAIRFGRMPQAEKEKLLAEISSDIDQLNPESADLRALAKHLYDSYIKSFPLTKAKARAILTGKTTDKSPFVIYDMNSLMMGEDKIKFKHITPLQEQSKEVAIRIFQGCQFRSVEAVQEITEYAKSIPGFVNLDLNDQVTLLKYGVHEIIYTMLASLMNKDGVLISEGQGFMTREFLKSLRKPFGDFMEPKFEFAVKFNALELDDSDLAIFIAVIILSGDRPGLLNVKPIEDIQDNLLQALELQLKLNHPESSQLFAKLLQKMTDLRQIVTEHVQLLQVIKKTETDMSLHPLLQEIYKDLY
- TEST DETAILS: Transactivation of human PPARgamma expressed in human HepG2 cells co-transfected with PPRE3-TK-Luc by luciferase reporter gene assay
Field format: number, assumed nM, no unit text.

Please report the recorded EC50 for CCO[C@@H](Cc1ccc(OCc2nc(-c3sccc3C)oc2C)cc1)C(=O)O . 0.0003

Query CCO[C@@H](Cc1ccc(OCCc2nc(-c3ccc(-c4ccccc4)s3)oc2C)cc1)C(=O)O next 4.5

Query CCO[C@@H](Cc1ccc(OCCc2nc(-c3cccs3)oc2C)cc1)C(=O)O next 0.05

Query CCO[C@@H](Cc1ccc(OCc2nc(-c3ccsc3)oc2C)cc1)C(=O)O next 2.7

Query CCO[C@@H](Cc1ccc(OCc2nc(-c3ccc(-c4ccccc4)s3)oc2C)cc1)C(=O)O next 3

Query CCO[C@@H](Cc1ccc(OCc2nc(-c3ccc(C)s3)oc2C)cc1)C(=O)O next 0.0002

Query CCO[C@@H](Cc1ccc(OCc2nc(-c3cccs3)oc2C)cc1)C(=O)O next 0.0015

Query CCO[C@@H](Cc1ccc(OCCc2nc(-c3sccc3C)oc2C)cc1)C(=O)O next 0.0001

Query CCO[C@@H](Cc1ccc(OCCc2nc(-c3ccsc3)oc2C)cc1)C(=O)O next 0.6

Query CCO[C@@H](Cc1ccc(OCCc2nc(-c3ccc(C)s3)oc2C)cc1)C(=O)O next 0.018
